# Experimental protocol: amyloid nucleation score (Sup35N fusion, yeast selection) (log enrichment); library NNK3; higher = more nucleation; inactive = no reads after selection;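 further: zero at mode of non-aggregating sequences after 7 days selection at 30°C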
Reported endpoint: amyloid nucleation score

| Substance | Reading |
| --- | --- |
| ELVYDLDRYDGGLGVKNEEW | inactive |
| SPDTARTH | inactive |
| IVSCTCDRMADLGST | inactive |
| VSGLFDVTLRGWYG | inactive |
| YCTRGNSTNLEYELECLVIF | inactive |
| CRYSLWSFSQMGEWMPRCER | inactive |
| NPIIKKSKLLKGHLSTCPMV | inactive |
| IPFGFSI | inactive |
| VNLITREHLKKGSMNNFIAN | inactive |
| PLRPKLFFERNGSGYRQNRA | inactive |

Challenge: Which amyloid nucleation score is reported for this substance? FHLYCTIITLACCIMVWNCQ
Response given: 1.33

Challenge: Can you share its amyloid nucleation score? I mean this substance: TGYLAMWLY
Response given: inactive

Challenge: What value of measured amyloid nucleation score is listed for KSTTACASRTYMCMHTGRNC ?
Response given: inactive

====

# Experimental protocol: amyloid nucleation score (Sup35N fusion, yeast selection) (log enrichment); library NNK1; higher = more nucleation; inactive = no reads after selection
Here, each record is paired with measured amyloid nucleation score data.
Answer with a bare number; do not write a unit.

Look over these answered cases.
| Record sequence | amyloid nucleation score |
| --- | --- |
| SRLEHRFLICNPELYVNFFM | 6.8 |
| AICWPVILSTDLTQTYLAWT | -0.247 |
| VYFIRIHLLFRHRTGGICNT | 1.06 |

Challenge: What measured amyloid nucleation score goes with WLTTGFLFVKLGGHKESSVQ ?
Response given: 0.015

Challenge: Would you kindly share the measured amyloid nucleation score for VKLLYVIISYVRVCCRMDQI ?
Response given: -0.501

Challenge: amyloid nucleation score lookup needed for TTWRMIFVVKRLHWFGLK , thanks.
Response given: -0.445

Challenge: Entry SHLMPGCEKFLHCVSFPDA has what amyloid nucleation score?
Response given: -0.45

====

# Experimental protocol: amyloid nucleation score (Sup35N fusion, yeast selection) (log enrichment); library NNK1; higher = more nucleation; inactive = no reads after selection
Reported endpoint: amyloid nucleation score
Hey, just send me the number, nothing else.

| Substance | amyloid nucleation score |
| --- | --- |
| KFFCCN | 7.78 |
| LILILNGMRNWSLAEDGACS | 0.326 |
| YHNLVLQSICDCSSLADLGW | 6.66 |
| ARNIVSFDGTFYSFKQTYTP | 2.12 |

Kindly review the next substance as well.
Challenge: Need amyloid nucleation score, item IRCRQQARTMYNKMEKMGRG
Response given: -0.433

====

Below, each entry is listed alongside its reported amyloid nucleation score.
# Experimental protocol: amyloid nucleation score (Sup35N fusion, yeast selection) (log enrichment); library NNK1; higher = more nucleation; inactive = no reads after selection
Provide a numeric answer; units are not to be included.

| Substance | Reported endpoint | Reading |
| --- | --- | --- |
| VLDGVNNNILLCLISRWGVL | amyloid nucleation score | 4.46 |

Challenge: Item under review: NDTFSYCSTSGDRFGT . Reported amyloid nucleation score?
Response given: 1.4

Challenge: Record request: amyloid nucleation score value, item INNGIQ
Response given: -0.047

Challenge: // returns reported amyloid nucleation score for input MMSSEVLPINSCIRSWANAL
Response given: -0.431

Challenge: Given IHQEIVNVNTIVCN , state its recorded amyloid nucleation score.
Response given: -0.147

Challenge: Which amyloid nucleation score value belongs to KDCDMIGDSVYGSKFVTREM ?
Response given: 0.503

Challenge: I have this substance here, TCVGFSGVGKGNSSIKVKEA , and I need its recorded amyloid nucleation score.
Response given: 0.351

Challenge: Look at this substance and give its reported amyloid nucleation score. LQLCLPVFNHVMHVNWMRFY
Response given: -0.837

Challenge: # input substance: VVSVMLAFYTKDSFVVWLNL ; wanted: its amyloid nucleation score
Response given: 1.02

Challenge: What value of measured amyloid nucleation score is listed for YQYGAWNSANVSSNN ?
Response given: 1.19

Challenge: Quick one: amyloid nucleation score of VDFDPNVLFKWTDMKRSRSR ?
Response given: 1.66

====

# Experimental protocol: amyloid nucleation score (Sup35N fusion, yeast selection) (log enrichment); library NNK2; higher = more nucleation; inactive = no reads after selection
Reported amyloid nucleation score values are given for each entry in this list.
Kindly provide the number alone.

The following substances have reported results that may help.
| Substance | amyloid nucleation score |
| --- | --- |
| YWTGGLHNEHLSMHVSVYSN | -0.527 |
| HPTSYVPSYLSFASKWLRVA | 0.571 |
| PAERSCGQCFQEFSWY | 0.102 |
| SSAFFSFNWADKWCMLMCLV | -1.41 |

Challenge: # amyloid nucleation score lookup, item FIYVSWRTWSEIVGMCFGVV
Response given: -1

====

# Experimental protocol: amyloid nucleation score (Sup35N fusion, yeast selection) (log enrichment); library NNK3; higher = more nucleation; inactive = no reads after selection
Reported endpoint: amyloid nucleation score

| Record sequence | amyloid nucleation score |
| --- | --- |
| PKTIRDVYVDGEEHVHFRWR | inactive |
| CIILAGYISLLRLDNDSGWV | inactive |
| LATHSICVKGNSRVSELISA | inactive |
| VKVFFPIVRCDTYHIYKQWG | 2.51 |

Then this sequence:
Challenge: Fill in the blank: the reported amyloid nucleation score of SWGAWIGLWFRTGVLLDESA is ____.
Response given: inactive

====

# Experimental protocol: amyloid nucleation score (Sup35N fusion, yeast selection) (log enrichment); library NNK3; higher = more nucleation; inactive = no reads after selection
Reported endpoint: amyloid nucleation score

| Record sequence | Reported endpoint | Reading |
| --- | --- | --- |
| KLFISPLEMLISRISWTILH | amyloid nucleation score | 0.152 |
| RPRLYFLTSNLKTQCAVHNA | amyloid nucleation score | inactive |
| MLIYSIVLGFKFSPPGFTSN | amyloid nucleation score | inactive |

====

# Experimental protocol: amyloid nucleation score (Sup35N fusion, yeast selection) (log enrichment); library NNK1; higher = more nucleation; inactive = no reads after selection
Recorded measurements of amyloid nucleation score, one per entry
The reply should be a number, written without any unit.

| Substance | amyloid nucleation score |
| --- | --- |
| VMLTPRDLGLVPIGLDHVRG | -0.236 |

Challenge: I am curious: what amyloid nucleation score value has been reported for NLWGSFTCYLFVIGNHWFGI ?
Response given: 6.96

Challenge: What value of amyloid nucleation score has been reported for the following substance? ECAIKG
Response given: 1.38

Challenge: Name the recorded amyloid nucleation score for LCSNYQCLTTVYQLVVVAEW .
Response given: 3.54

====

Let's look at some substances and their measured amyloid nucleation score.
# Experimental protocol: amyloid nucleation score (Sup35N fusion, yeast selection) (log enrichment); library NNK2; higher = more nucleation; inactive = no reads after selection
Respond with the number and no other words.

Challenge: Consider the substance MKFVNINGAICSVRHPSVRT and give its measured amyloid nucleation score.
Response given: 0.089

Challenge: Bench note: what amyloid nucleation score did ILWGERRIDSRSWKIVARYF show?
Response given: -0.664

Challenge: Using the record for NYVCWISGTTGLVM , report its amyloid nucleation score.
Response given: -0.319

Challenge: Requested read-out: amyloid nucleation score. Entry: RMRVIISR
Response given: -0.881

Challenge: Name the recorded amyloid nucleation score for TVHCGMQWWLVARRPRNEAQ .
Response given: 1.25

====

Quick reference for amyloid nucleation score among some sequences
# Experimental protocol: amyloid nucleation score (Sup35N fusion, yeast selection) (log enrichment); library NNK2; higher = more nucleation; inactive = no reads after selection
Answer with a bare number; do not write a unit.

Sample records with amyloid nucleation score:
| Record sequence | amyloid nucleation score |
| --- | --- |
| HYKTMFRFVCHFCENGGDGL | 10.2 |
| TCLAKLLFCKSTSKDRV | 0.063 |

Challenge: Need amyloid nucleation score of MGFQVYLGRGLNDFKAE , thanks.
Response given: 2.66

Challenge: What value of amyloid nucleation score has been recorded for this entry: KCYSYCLLAL
Response given: -0.202

====

amyloid nucleation score reference
# Experimental protocol: amyloid nucleation score (Sup35N fusion, yeast selection) (log enrichment); library NNK2; higher = more nucleation; inactive = no reads after selection
Please give only the number in your answer, with no unit.

The cases that follow already have their amyloid nucleation score on record.
| Substance | amyloid nucleation score |
| --- | --- |
| VSFKDTTGECGDLSYRKNAR | 0.646 |
| GGNVLRE | -0.527 |
| TFRYFGDWNLQRGML | 0.85 |
| HPDGYVHRVGSLN | -0.235 |

Challenge: Query (substance): LMSQGCRGRLLL ; field requested: amyloid nucleation score
Response given: -0.356

Challenge: Quick one: amyloid nucleation score of MHDYFLVQ ?
Response given: -0.487
